# test system: GSK3α (GST-full length GSK3α) (Homo sapiens (Human), UniProt P49840)
# Sequence (P49840 whole entry): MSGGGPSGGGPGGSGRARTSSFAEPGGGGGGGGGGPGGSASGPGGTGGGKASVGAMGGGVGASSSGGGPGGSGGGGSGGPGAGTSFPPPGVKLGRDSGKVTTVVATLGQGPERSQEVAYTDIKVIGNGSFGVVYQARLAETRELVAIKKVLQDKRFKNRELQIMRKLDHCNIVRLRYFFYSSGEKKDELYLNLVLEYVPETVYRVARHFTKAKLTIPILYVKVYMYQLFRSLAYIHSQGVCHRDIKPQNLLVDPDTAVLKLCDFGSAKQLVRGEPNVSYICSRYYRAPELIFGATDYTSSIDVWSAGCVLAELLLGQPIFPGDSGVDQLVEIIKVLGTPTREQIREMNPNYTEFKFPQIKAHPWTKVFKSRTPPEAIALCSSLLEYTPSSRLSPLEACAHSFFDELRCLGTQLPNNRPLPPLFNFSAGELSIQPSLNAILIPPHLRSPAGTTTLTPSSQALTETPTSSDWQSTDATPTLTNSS
# assay text: GSK3α TR-FRET kinase assay
# Type: biochemical
# condition description: 1 nM GSK3α, 4 μM ATP, 30 minute preincubation, Table 16; read-out: GSK3-A TR-FRET BIOCHEMICAL (TR-FRET)
pIC50: −log10 of the molar value.
reported endpoint: pIC50

compound	pIC50
CC1(C)CC(=O)C2=C(C1)Nc1n[nH]cc1[C@]21CCCN(S(=O)(=O)Cc2ccccc2)CC1	6.00 to 7.00

The measured pIC50 associated with CCC1(c2cccc(-c3ccnc(C)n3)c2)C2=C(CC(C)(C)CC2=O)Nc2n[nH]cc21 (stereo not shown) reads 6.00 to 7.00

The measured pIC50 associated with CC[C@]1(c2ccccc2)C2=C(C[C@@]3(CCNC3=O)CC2=O)Nc2n[nH]cc21 reads 5.30 to 6.00

The measured pIC50 associated with CCC1(c2cccc(-c3ccncc3S(C)(=O)=O)c2)C2=C(CC(C)(C)CC2=O)Nc2n[nH]cc21 (stereo not shown) reads ≥ 7.00

The measured pIC50 associated with COC(=O)C1CCC2(CC1)C1=C(CC(C)(C)CC1=O)Nc1n[nH]cc12 (stereo not shown) [Compound 918277] reads ≥ 7.00

The measured pIC50 associated with CC1(C)CC(=O)C2=C(C1)Nc1n[nH]cc1C21CCN(S(=O)(=O)c2cccc(C(F)(F)F)c2)CC1 reads ≥ 7.00

The measured pIC50 associated with CC[C@@]1(c2cccc(-c3ccnn3C)c2)C2=C(Nc3n[nH]cc31)[C@H](F)C(C)(C)CC2=O reads ≥ 7.00
